Assay target: purified α5β1 receptor (Homo sapiens, UniProt P05556+P08648)
Protocol text: Competitive binding assay to purified α5β1 receptor (displacement of biotinylated fibronectin)
Condition details: immobilized integrin α5β1, biotinylated fibronectin 1 μg mL−1; mean ± SD of duplicate determinations
Starred links: 1 amine or outer side, 2 acyl side, 3 side chain; linkers in the order of their positions; H or OH if unused. Positions of bridges follow the written chain, without caps; N, C: chain ends. Non-standard residues stand in square brackets, D forms with d. Residues, ends and D or L forms follow the SMILES beside them. X1 = O=C([C@@H]1CCC[C@@H]1N[*:1])[*:2]
Assay readout: IC50 (nM)
Write the number in nM without appending the unit.

Consider the reported IC50 for these molecules:
Asked: Give a short answer stating reported IC50 for CC(C)[C@@H]1NC(=O)[C@@H]2CCC[C@@H]2NC(=O)[C@H](CCCNC(=N)N)NC(=O)CNC(=O)C[C@@H](C(=O)O)NC1=O [Compound 10] (GR[X1]VD-OH; lactam N-5) .
Given back: 2330

Asked: Retrieve IC50 measured for CC(C)[C@@H]1NC(=O)[C@H]2CCC[C@H]2NC(=O)[C@H](CC(=O)O)NC(=O)CNC(=O)[C@H](CCCNC(=N)N)NC1=O [Compound 8, cyclo-[-Arg-Gly-Asp-(1S,2R)-β-ACPC-Val-]] and print it.
Given back: 3230

Query molecule follows.
Asked: Give a short answer stating reported IC50 for CC(C)[C@@H]1NC(=O)[C@@H]2CCC[C@@H]2NC(=O)[C@H](CC(=O)O)NC(=O)CNC(=O)[C@H](CCCNC(=N)N)NC1=O [Compound 9, cyclo-[-Arg-Gly-Asp-(1R,2S)-β-ACPC-Val-]] .
Given back: 468

====

Assay target: WM115 cells (Homo sapiens, UniProt P05106+P06756)
Format: cell-based
Condition details: read-out: IC50 (50% inhibition of cell adhesion to vitronectin); WM115 cells, fluorescein labeled; mean ± SD of two independent assays
Below: a set of entries, each annotated with reported IC50.
Give just the number in µM; leave the unit off.

Asked: Under WM115 cells (Homo sapiens, UniProt P05106+P06756): report IC50 of CC(C)[C@@H]1NC(=O)[C@H]2CCC[C@H]2NC(=O)[C@H](CC(=O)O)NC(=O)CNC(=O)[C@H](CCCNC(=N)N)NC1=O [Compound 8, cyclo-[-Arg-Gly-Asp-(1S,2R)-β-ACPC-Val-]] .
Given back: 75

New cases:
Asked: Name the recorded IC50 of CC(C)[C@@H]1NC(=O)[C@@H]2CCC[C@@H]2NC(=O)[C@H](CC(=O)O)NC(=O)CNC(=O)[C@H](CCCNC(=N)N)NC1=O [Compound 9, cyclo-[-Arg-Gly-Asp-(1R,2S)-β-ACPC-Val-]] , assay system WM115 cells (Homo sapiens, UniProt P05106+P06756).
Given back: 124

====

Assay target: purified αvβ3 receptor (Homo sapiens, UniProt P05106+P06756)
Protocol text: Competitive binding assay to purified αvβ3 receptor (displacement of biotinylated vitronectin)
Condition details: immobilized integrin αvβ3, biotinylated vitronectin 1 μg mL−1; mean ± SD of duplicate determinations
Starred links: 1 amine or outer side, 2 acyl side, 3 side chain; linkers in the order of their positions; H or OH if unused. Positions of bridges follow the written chain, without caps; N, C: chain ends. Non-standard residues stand in square brackets, D forms with d. Residues, ends and D or L forms follow the SMILES beside them. X1 = O=C([C@@H]1CCC[C@@H]1N[*:1])[*:2]
The following molecules are listed with their measured IC50 values.

Asked: Identify IC50 associated with the molecule CC(C)[C@@H]1NC(=O)[C@@H]2CCC[C@@H]2NC(=O)[C@H](CCCNC(=N)N)NC(=O)CNC(=O)C[C@@H](C(=O)O)NC1=O [Compound 10] (GR[X1]VD-OH; lactam N-5)
Given back: 5.36 µM

Continuing:
Asked: Return IC50 for the following molecule: CC(C)[C@@H]1NC(=O)[C@@H]2CCC[C@@H]2NC(=O)[C@H](CC(=O)O)NC(=O)CNC(=O)[C@H](CCCNC(=N)N)NC1=O [Compound 9, cyclo-[-Arg-Gly-Asp-(1R,2S)-β-ACPC-Val-]]
Given back: 0.039 µM

Asked: Tell me IC50 reported for CC(C)[C@@H]1NC(=O)[C@H]2CCC[C@H]2NC(=O)[C@H](CC(=O)O)NC(=O)CNC(=O)[C@H](CCCNC(=N)N)NC1=O [Compound 8, cyclo-[-Arg-Gly-Asp-(1S,2R)-β-ACPC-Val-]]
Given back: 0.0443 µM
